assay: Inhibition of alpha-glucosidase (unknown origin) using pNPG substrate incubated for 15 mins by microplate reader based method
endpointName: IC50 (µM)
Report the figure in µM without appending any unit label.

A selection of reference data follows.
O=C(N/N=C/c1cccc(O)c1)c1ccc(-c2nc3ccccc3s2)cc1; 9.21
O=C(N/N=C/c1cccc(O)c1O)c1ccc(-c2nc3ccccc3s2)cc1; 11.2
COc1cc(/C=N/NC(=O)c2ccc(-c3nc4ccccc4s3)cc2)cc(OC)c1; 16.2
O=C(N/N=C/c1c(O)cc(O)cc1O)c1ccc(-c2nc3ccccc3s2)cc1; 8.37
COc1cc(/C=N/NC(=O)c2ccc(-c3nc4ccccc4s3)cc2)ccc1O; 53.3

Give the reported value of IC50 for this record: "COc1ccc(/C=N/NC(=O)c2ccc(-c3nc4ccccc4s3)cc2)cc1" 18.3

Give the reported value of IC50 for this record: "COc1ccc(/C=N/NC(=O)c2ccc(-c3nc4ccccc4s3)cc2)c(I)c1O" 44.8

Give the reported value of IC50 for this record: "O=C(N/N=C/c1ccc(O)c(O)c1)c1ccc(-c2nc3ccccc3s2)cc1" 15.1

Give the reported value of IC50 for this record: "O=C(N/N=C/c1cc(O)cc(O)c1)c1ccc(-c2nc3ccccc3s2)cc1" 11.1

Give the reported value of IC50 for this record: "O=C(N/N=C/c1ccc(Cl)cc1)c1ccc(-c2nc3ccccc3s2)cc1" 5.31

Give the reported value of IC50 for this record: "O=C(N/N=C/c1ccc([N+](=O)[O-])cc1)c1ccc(-c2nc3ccccc3s2)cc1" 26.4

Give the reported value of IC50 for this record: "O=C(N/N=C/c1cccs1)c1ccc(-c2nc3ccccc3s2)cc1" 8.48

Give the reported value of IC50 for this record: "O=C(N/N=C/c1cc(O)ccc1O)c1ccc(-c2nc3ccccc3s2)cc1" 11.8

Give the reported value of IC50 for this record: "O=C(N/N=C/c1ccc(O)cc1O)c1ccc(-c2nc3ccccc3s2)cc1" 5.58

Give the reported value of IC50 for this record: "O=C(N/N=C\c1ccco1)c1ccc(-c2nc3ccccc3s2)cc1" 12.8

Cited source: BindingDB's records for doi:10.1016/j.ejmech.2015.01.009
